This collection of values is drawn from patent US10072025B2.

targetSystem: JAK1 (Homo sapiens (Human))
Sequence (P23458 875-1153): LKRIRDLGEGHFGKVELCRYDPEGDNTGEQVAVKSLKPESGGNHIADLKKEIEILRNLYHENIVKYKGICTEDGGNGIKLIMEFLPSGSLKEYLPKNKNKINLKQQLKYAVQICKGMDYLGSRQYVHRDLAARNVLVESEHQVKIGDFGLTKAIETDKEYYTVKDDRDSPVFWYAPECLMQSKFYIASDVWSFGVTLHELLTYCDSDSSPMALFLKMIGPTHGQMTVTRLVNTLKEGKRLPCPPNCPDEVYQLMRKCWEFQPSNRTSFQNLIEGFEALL
assayName: Jak Biochemical HTRF Assay (JAK1)
experimentalContext: recombinant purified GST-tagged catalytic domain; HTRF; [ATP] 31.8 μM; [E] 1.405 nM
Description: Jak Biochemical HTRF Assay Protocol The ability of compounds to inhibit the activity of JAK1, JAK2, JAK3, and Tyk2 was measured using a recombinant purified GST-tagged catalytic domain for each enzyme (Invitrogen JAK1 #M4290, JAK2 #M4290, JAK3 #M4290, Tyk2 #M4290) in an HTRF format biochemical assay. […] Plates were shaken and centrifuged and then incubated 60 minutes at room temperature and then read on a Perkin Elmer Envision (Xex=337 nm, λem=665 and 615 nm, TRF delay time=20 μs). […]
Quick reference for pIC50 among some compounds
Please keep in mind that pIC50 is minus log10 of the molar concentration; only the number is needed.

Example entries and their recorded answers appear below.
compound="CCC1(n2nc(Nc3ccc(C(=O)N4CCOC5CC54)c(C)c3)c3c(=O)[nH]ccc32)CCN(C(=O)OC(C)(C)C)CC1 (stereo not drawn)" metricname=pIC50 reportedvalue=8.77
compound="CCC1(n2nc(Nc3ccc(S(=O)(=O)N4CCC[C@@H]4C)cc3)c3c(=O)[nH]ccc32)CCN(C(=O)OC(C)(C)C)CC1 (single isomer, unassigned)" metricname=pIC50 reportedvalue=8.62
compound=CCC1(n2nc(Nc3ccc(C(=O)O)c(C)c3)c3c(=O)[nH]ccc32)CCN(C(=O)OC(C)(C)C)CC1 metricname=pIC50 reportedvalue=9.64
compound=CCC1(n2nc(Nc3ccc(S(=O)(=O)N(C)C)cc3)c3c(=O)[nH]ccc32)CCN(C(=O)OC(C)(C)C)CC1 metricname=pIC50 reportedvalue=9.70
compound=CCC1(n2nc(Nc3ccc(S(C)(=O)=O)cc3)c3c(=O)[nH]ccc32)CCN(C(=O)OC(C)(C)C)CC1 metricname=pIC50 reportedvalue=9.92

stdin: I have this compound here, CCC1(n2nc(Nc3ccc([C@@]4(C(F)(F)F)CCCN4)cc3)c3c(=O)[nH]ccc32)CCN(C(=O)OC(C)(C)C)CC1 (single isomer, unassigned) , and I need its recorded pIC50.
stdout: 8.60

stdin: I have this compound here, CCC1(n2nc(Nc3ccc(C(=O)N4C[C@@H]5C[C@H]4CO5)c(C)c3)c3c(=O)[nH]ccc32)CCN(C(=O)OC(C)(C)C)CC1 , and I need its recorded pIC50.
stdout: 9.44

stdin: I have this compound here, CCC1(n2nc(Nc3ccc(C(=O)N4CCOCC4)c(F)c3)c3c(=O)[nH]ccc32)CCN(C(=O)OC(C)(C)C)CC1 , and I need its recorded pIC50.
stdout: 9.25

stdin: I have this compound here, CCC1(n2nc(Nc3ccc(C(=O)N4CCC(F)(F)CC4)c(C)c3)c3c(=O)[nH]ccc32)CCN(C(=O)OC(C)(C)C)CC1 , and I need its recorded pIC50.
stdout: 8.92

stdin: I have this compound here, CCC1(n2nc(Nc3ccc(S(=O)(=O)N4CCC[C@H]4C)cc3)c3c(=O)[nH]ccc32)CCN(C(=O)OC(C)(C)C)CC1 (single isomer, unassigned) , and I need its recorded pIC50.
stdout: 8.67

stdin: I have this compound here, CCC1(n2nc(Nc3ccc4c(c3)CN(C3CCOCC3)S4(=O)=O)c3c(=O)[nH]ccc32)CCN(C(=O)OC(C)(C)C)CC1 , and I need its recorded pIC50.
stdout: 9.27

stdin: I have this compound here, CCC1(n2nc(Nc3ccc([C@]4(C(F)(F)F)CCCN4)cc3)c3c(=O)[nH]ccc32)CCN(C(=O)OC(C)(C)C)CC1 (single isomer, unassigned) , and I need its recorded pIC50.
stdout: 8.55
